# pIC50 annotations
target: hNav1.2 (Homo sapiens (Human), UniProt Q99250); assay: Automated patch clamp (IonWorks Quattro) block of hNav1.2 channels in CHO cells; format: cell-based; conditions: 10 Hz frequency-dependent block (TP11), read-out: IC50 Nav1.2 10 Hz block
Sequence (Q99250 whole entry): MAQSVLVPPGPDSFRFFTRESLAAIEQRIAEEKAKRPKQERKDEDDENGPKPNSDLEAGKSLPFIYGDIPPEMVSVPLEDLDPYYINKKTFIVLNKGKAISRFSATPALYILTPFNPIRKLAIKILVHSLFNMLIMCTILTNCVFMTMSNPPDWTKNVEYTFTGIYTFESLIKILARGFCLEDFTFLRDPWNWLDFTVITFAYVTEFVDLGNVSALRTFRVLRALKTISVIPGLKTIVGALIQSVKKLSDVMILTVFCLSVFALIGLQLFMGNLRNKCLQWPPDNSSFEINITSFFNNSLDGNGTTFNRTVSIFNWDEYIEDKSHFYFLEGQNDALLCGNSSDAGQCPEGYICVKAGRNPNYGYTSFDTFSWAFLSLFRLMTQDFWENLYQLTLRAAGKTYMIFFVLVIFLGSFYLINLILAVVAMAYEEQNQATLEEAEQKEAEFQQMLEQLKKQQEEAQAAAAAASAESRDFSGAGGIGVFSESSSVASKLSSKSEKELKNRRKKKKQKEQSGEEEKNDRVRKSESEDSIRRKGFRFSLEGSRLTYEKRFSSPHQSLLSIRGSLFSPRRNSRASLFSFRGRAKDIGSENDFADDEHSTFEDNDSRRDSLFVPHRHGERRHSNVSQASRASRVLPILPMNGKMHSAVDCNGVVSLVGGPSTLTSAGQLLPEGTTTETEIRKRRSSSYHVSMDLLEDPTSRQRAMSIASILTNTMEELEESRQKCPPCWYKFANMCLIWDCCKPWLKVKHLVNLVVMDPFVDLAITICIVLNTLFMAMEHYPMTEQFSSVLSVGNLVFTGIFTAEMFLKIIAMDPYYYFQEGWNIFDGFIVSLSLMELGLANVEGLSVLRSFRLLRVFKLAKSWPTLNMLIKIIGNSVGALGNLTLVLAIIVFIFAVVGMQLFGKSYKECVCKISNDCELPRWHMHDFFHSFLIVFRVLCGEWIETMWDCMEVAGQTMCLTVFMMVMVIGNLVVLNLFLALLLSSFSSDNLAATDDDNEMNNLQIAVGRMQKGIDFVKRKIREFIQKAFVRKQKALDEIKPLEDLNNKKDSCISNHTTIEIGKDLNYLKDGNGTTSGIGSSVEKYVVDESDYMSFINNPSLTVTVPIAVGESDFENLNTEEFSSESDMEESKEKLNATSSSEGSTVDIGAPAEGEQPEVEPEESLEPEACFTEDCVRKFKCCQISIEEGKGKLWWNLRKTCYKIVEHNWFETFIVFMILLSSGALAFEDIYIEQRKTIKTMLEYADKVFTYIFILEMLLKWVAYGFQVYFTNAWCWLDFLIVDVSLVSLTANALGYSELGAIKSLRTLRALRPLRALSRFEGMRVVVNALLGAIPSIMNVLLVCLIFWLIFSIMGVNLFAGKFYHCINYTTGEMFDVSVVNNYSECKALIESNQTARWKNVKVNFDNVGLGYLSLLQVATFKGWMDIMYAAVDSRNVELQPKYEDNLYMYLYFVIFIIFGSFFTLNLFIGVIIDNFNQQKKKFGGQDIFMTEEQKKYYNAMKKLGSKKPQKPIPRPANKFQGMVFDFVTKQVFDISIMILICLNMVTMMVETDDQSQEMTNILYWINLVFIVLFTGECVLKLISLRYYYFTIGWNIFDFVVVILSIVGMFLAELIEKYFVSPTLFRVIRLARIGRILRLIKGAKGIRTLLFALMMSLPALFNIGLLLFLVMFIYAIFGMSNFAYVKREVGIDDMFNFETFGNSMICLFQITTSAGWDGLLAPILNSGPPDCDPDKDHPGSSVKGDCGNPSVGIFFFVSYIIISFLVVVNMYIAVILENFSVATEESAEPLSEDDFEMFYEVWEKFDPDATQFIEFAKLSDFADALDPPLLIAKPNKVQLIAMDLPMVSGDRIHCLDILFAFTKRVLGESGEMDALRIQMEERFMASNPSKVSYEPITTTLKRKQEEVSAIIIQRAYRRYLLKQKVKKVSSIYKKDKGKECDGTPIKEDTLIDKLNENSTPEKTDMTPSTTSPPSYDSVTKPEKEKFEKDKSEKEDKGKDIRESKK
Here pIC50 is given on a logarithmic scale as minus log10 of the concentration in mol/L.

Cc1cccc(C)c1OCCCNCc1cccc(F)c1 : 5.09
COc1ccccc1CNCCCOc1c(C)cccc1C : 5.54
Cc1cccc(C)c1OCCCNCc1cccc(-c2ccccc2)c1 : 4.68
Cc1cccc(C)c1OCCCNCc1cccc(-c2ccc(F)cc2)c1 : 5.03
COc1ccc(CNCCCOc2c(C)cccc2C)cc1 : 5.68

Task item: Please give measured pIC50 of the following entry: Cc1cccc(C)c1OCCCNCc1ccccc1-c1ccccc1
Reply: 5.77

Task item: Return reported pIC50. Input compound: Cc1cccc(C)c1OCCCNC(C)c1ccccc1 (stereo not drawn)
Reply: 5.92

Task item: Given Cc1cccc(C)c1OCCCNCc1ccc(OC(F)(F)F)cc1 , respond with its pIC50.
Reply: 5.44

Task item: Dear colleague, please send me the reported pIC50 for Cc1cccc(C)c1OCCCNCc1cccc(-c2cncnc2)c1 when you can.
Reply: 6.22

Task item: Answer with the recorded pIC50 of Cc1cccc(C)c1OCCCNCc1ccccc1 only.
Reply: 5.74

Task item: Identify pIC50 associated with the compound Cc1cccc(C)c1OCCCNCc1ccc(C#N)cc1
Reply: 5.08

Task item: State its pIC50: Cc1cccc(C)c1OCCCNCc1ccc(F)cc1
Reply: 5.08

Task item: Please report the measured pIC50 for Cc1cccc(C)c1OCCCNCc1ccc(O)cc1
Reply: 5.29
